Hello, the source for this data is patent CN114651011A, in case you need it.

Assayed target: T1, 人CD43 (human CD43, UMG1 epitope), endogenous on human cells, cell lines and tissues (human, UniProt P16150 20-400)
T1 construct: The cells carry the natural protein; also called UMG1表位; UMG1抗原
T1 sequence: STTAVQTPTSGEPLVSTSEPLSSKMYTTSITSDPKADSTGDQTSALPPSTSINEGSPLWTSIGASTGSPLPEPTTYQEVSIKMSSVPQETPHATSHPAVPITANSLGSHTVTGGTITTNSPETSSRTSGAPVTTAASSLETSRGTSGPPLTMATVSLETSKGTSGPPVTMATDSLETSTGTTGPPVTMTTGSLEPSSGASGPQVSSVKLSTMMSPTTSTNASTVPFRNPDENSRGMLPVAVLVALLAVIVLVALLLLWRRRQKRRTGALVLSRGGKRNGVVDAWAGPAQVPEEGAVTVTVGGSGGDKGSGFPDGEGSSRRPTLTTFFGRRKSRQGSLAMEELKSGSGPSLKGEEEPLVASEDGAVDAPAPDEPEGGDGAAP
Test summary: flow cytometry (MFI) on HPB-ALL and H9 cells, 1 μg/ml, FITC mouse anti-human IgG
Measurement type: binding result

What value of binding result has been reported for the following binder? 人源化UMG1抗体 H4-L3 (antibody, IgG1, V domains shown, one of the 16 combinations of H1-4 with L1-4) VH: QVQLVESGGGVVQPGGSLRLSCVASGFTFSSFGMHWVRQAPGKGLEWVAYISSGSGNFYYVDTVKGRFTISRDNSKNTLYLQMNSLRAEDTAVYYCARSTYYHGSRGAMDYWGQGTLVTVSS VL: QVVMTQSPAFLSVTPGEKVTITCSASSSVSSMYWYQQKPDQAPKLLIYDTSKMASGVPSRFSGSGSGTDFTFTISSLEAEDAATYYCQQWSSYPPITFGGGTKVEIK binds

For 人源化UMG1抗体 H1-L3 (antibody, IgG1, V domains shown, one of the 16 combinations of H1-4 with L1-4) VH: EVQLVESGGGLVQPGGSLRLSCAASGFTFSSFGMHWVRQAPGKGLEWVSYISSGSGNFYYVDTVKGRFTISRDNAKNSLYLQMNSLRAEDTAVYYCARSTYYHGSRGAMDYWGQGTLVTVSS VL: QVVMTQSPAFLSVTPGEKVTITCSASSSVSSMYWYQQKPDQAPKLLIYDTSKMASGVPSRFSGSGSGTDFTFTISSLEAEDAATYYCQQWSSYPPITFGGGTKVEIK , what is its reported binding result? binds
